Biological target: T1, human glucagon receptor (human, UniProt P47871 26-477)
T1 construct: whole, on cells; Used as crude membranes of stably transfected HEK293 cells; also called hGcgR; hGLcgR
T1 sequence (P47871 26-477): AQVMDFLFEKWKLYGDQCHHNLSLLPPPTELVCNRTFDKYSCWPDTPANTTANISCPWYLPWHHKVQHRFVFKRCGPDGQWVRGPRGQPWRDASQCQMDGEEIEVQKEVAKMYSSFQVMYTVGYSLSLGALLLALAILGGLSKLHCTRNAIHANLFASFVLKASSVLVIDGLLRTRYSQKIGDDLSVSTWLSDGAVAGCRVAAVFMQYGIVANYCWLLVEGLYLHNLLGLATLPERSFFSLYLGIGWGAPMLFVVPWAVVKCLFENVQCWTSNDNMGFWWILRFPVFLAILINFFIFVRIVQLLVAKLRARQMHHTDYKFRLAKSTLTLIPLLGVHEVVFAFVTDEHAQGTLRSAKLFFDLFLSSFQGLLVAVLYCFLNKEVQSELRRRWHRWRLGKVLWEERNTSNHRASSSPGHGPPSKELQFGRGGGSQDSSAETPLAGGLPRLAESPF
Test: SPA, [125I]-Gcg displacement, hGcgR membranes
Entries whose Ki is below 70 nM take Fulfilled; entries at or above 70 nM take Not fulfilled.

I'd appreciate it if you could check whether YXEGTXTSDYSIXLDEKAQXEFIEYLIEGGPSSGAPPPS (Aib2; αMeF(2F)6; αMeL13; K17((2-[2-(2-Amino-ethoxy)-ethoxy]-acetyl)2-(γ-Glu)-CO-(CH2)18-CO2H); Aib20; C-terminal NH2) [Example 118] has Ki smaller than 70 nM.
Fulfilled

Does this binder meet the criterion Ki < 70 nM? YXEGTFTSDYSIXLDKKAQXAFIEYXIEGGPSSGAPPPS (Aib2; αMeL13; K17((2-[2-(2-Amino-ethoxy)-ethoxy]-acetyl)2-(γ-Glu)-CO-(CH2)18-CO2H); Aib20; αMeL26; C-terminal NH2) [Example 75]
Not fulfilled

For YXEGTXTSDLSIXLDEKAQXEFIXYLIEGGPSSGAPPPS (not printed (the compound name of this Example is missing from the table of Examples 6-287)) [Example 183] , is the recorded Ki below the cut-off of 70 nM?
Not fulfilled

State whether 70 nM exceeds Ki recorded for YXEGTXTSDXSIXLDEKAQXEFIXYLIEGGPSSGAPPPS (Aib2; αMeF(2F)6; 4Pal10; αMeL13; K17((2-[2-(2-Amino-ethoxy)-ethoxy]-acetyl)2-(εK)-CO-(CH2)18-CO2H); Aib20; D-Glu24; C-terminal NH2) [Example 207] .
Not fulfilled

Consider the binder YXEGTXTSDXSIXLDEKAQXEFIEYLIEGGPSSGAPPPS (Aib2; αMeF(2F)6; 3Pal10; αMeL13; K17((2-[2-(2-Amino-ethoxy)-ethoxy]-acetyl)2-(γ-Glu)-CO-(CH2)18-CO2H); Aib20; C-terminal NH2) [Example 157] . Is its Ki strictly less than 70 nM?
Not fulfilled

Answer whether the binder YXEGTXTSDASIXLDKKAQXAFIEYLIEGGPSSGAPPPS (Aib2; αMeF6; αMeL13; K17((2-[2-(2-Amino-ethoxy)-ethoxy]-acetyl)2-(γ-Glu)-CO-(CH2)18-CO2H); Aib20; C-terminal NH2) [Example 145] has Ki strictly less than 70 nM
Not fulfilled

For YXEGTXTSDYSIXLDEKAQXEFIEYLIEGGPSSG (Aib2; αMeF6; αMeL13; K17((2-[2-(2-Amino-ethoxy)-ethoxy]-acetyl)2-(γ-Glu)-CO-(CH2)18-CO2H); Aib20; C-terminal NH2) [Example 124] , is the recorded Ki below the cut-off of 70 nM?
Fulfilled

Hello, is Ki of the following binder strictly smaller than 70 nM? YXEGTFTSDYSILLDKKAQXAFIEYLIEGGPSSGAPPPS (Aib2; K17((2-[2-(2-Amino-ethoxy)-ethoxy]-acetyl)-(γ-Glu)-(Trx)-CO-(CH2)18-CO2H); Aib20; C-terminal NH2) [Example 110]
Not fulfilled

Please let me know if YXEGTXTSDYSIXLDKKAQXAFIEYLIEGGPSSGAPPPS (Aib2; αMeF6; αMeL13; K17((2-[2-(2-Amino-ethoxy)-ethoxy]-acetyl)2-(γ-Glu)-CO-(CH2)18-CO2H); Aib20; C-terminal NH2) [Example 69] shows Ki below 70 nM.
Fulfilled

# TODO verify Ki < 70 nM strictly for this binder: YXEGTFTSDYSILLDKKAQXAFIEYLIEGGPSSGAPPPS (αMePro2; K17((2-[2-(2-Amino-ethoxy)-ethoxy]-acetyl)2-(γ-Glu)-CO-(CH2)18-CO2H); Aib20; C-terminal NH2) [Example 87]
Not fulfilled

Strictly below 70 nM in Ki? YXEGTFTSDYSIXLDEKAQXAFIEYLIEGG (Aib2; αMeL13; K17((2-[2-(2-Amino-ethoxy)-ethoxy]-acetyl)2-(γ-Glu)-CO-(CH2)18-CO2H); Aib20; C-terminal NH2) [Example 63]
Not fulfilled
